# assay target: Integrin alpha-IIb/beta-3 (Homo sapiens, UniProt P05106+P08514)
# Sequence (P05106 27-788 limits assumed): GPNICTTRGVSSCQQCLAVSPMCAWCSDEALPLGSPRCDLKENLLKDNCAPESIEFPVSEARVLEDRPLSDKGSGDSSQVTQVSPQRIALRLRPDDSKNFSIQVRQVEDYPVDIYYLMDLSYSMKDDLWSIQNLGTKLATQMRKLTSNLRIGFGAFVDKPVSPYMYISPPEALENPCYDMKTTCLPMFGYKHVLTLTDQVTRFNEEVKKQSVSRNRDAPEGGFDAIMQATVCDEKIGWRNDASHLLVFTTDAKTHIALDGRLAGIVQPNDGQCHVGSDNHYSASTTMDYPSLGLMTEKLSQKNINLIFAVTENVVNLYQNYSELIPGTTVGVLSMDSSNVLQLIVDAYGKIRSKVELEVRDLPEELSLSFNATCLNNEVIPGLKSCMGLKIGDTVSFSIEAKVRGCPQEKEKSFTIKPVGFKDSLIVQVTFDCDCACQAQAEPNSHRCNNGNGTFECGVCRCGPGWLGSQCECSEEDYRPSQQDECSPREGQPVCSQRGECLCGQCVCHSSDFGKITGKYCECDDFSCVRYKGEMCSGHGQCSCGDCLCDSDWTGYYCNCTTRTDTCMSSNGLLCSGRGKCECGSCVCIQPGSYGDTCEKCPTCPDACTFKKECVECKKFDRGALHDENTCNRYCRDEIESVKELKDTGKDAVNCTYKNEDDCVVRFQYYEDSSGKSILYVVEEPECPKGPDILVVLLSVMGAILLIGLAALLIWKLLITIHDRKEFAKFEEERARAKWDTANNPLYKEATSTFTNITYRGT
# Sequence (P08514 32-887 limits assumed): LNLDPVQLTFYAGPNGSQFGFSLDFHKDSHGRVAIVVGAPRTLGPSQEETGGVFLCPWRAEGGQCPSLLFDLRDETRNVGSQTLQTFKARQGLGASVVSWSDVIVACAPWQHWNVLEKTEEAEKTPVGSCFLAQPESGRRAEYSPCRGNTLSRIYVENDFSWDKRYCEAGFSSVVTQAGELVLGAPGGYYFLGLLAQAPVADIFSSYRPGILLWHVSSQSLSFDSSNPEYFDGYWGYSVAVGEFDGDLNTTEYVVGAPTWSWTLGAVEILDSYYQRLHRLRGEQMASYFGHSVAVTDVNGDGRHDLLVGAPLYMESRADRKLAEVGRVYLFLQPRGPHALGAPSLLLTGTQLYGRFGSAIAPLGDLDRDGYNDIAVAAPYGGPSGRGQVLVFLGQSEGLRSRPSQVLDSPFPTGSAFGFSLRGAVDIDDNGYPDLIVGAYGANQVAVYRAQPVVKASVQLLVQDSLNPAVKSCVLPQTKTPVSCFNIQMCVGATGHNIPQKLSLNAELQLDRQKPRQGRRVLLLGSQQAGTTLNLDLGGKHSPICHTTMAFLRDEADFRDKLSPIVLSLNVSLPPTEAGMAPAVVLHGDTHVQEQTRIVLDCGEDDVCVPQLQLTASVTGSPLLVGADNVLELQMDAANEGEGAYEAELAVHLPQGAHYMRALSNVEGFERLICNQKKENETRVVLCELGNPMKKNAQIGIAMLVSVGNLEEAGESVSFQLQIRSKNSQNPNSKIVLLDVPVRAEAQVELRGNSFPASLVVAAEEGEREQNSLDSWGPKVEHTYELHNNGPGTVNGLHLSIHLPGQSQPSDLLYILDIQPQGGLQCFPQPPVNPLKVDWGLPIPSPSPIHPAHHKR
# Sequence (P08514 891-1039 limits assumed): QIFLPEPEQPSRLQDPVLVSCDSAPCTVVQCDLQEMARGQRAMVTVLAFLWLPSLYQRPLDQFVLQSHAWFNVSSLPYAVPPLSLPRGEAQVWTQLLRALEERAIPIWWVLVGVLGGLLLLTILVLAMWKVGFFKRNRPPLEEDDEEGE
# protocol: Inhibition of [3H]-107260 binding to purified GPIIb/IIIa of human platelets
Bridge positions count the residues as written; N and C are the ends. Square brackets hold non-standard residues; d marks the D form. Peptide text beside a SMILES is read from it. NMeR = CN[C@@H](CCCNC(=N)N)C(=O)O
measured property: Ki (nM)
Numeric answer only, unit nM assumed.

Asked: Which Ki is reported for this compound? CC(=O)N(C)C(CCCNC(=N)N)C(=O)NCC1=CC(CC(=O)O)C(=O)N(c2ccccc2)CC1 (configuration not stated)
Given back: 271

Asked: Please report the recorded Ki for CC(=O)N[C@H]1CSSC[C@@H](C(N)=O)NC(=O)[C@H](CC(=O)O)NC(=O)CNC(=O)[C@H](CCCN=C(N)N)N(C)C1=O (Ac-C[NMeR]GDC-NH2; disulfide 1-5) .
Given back: 175
